Could you please report measured IC50 for the items listed next?
Target: COX-1 (Sus scrofa)
Construct: A platelet suspension obtained from pig's blood is preincubated with the test substance; endogenous in cells; host or cells: platelets from pig's blood
Test: In-vitro test for COX-1 inhibition: fluorimetric quantification of malonaldehyde (MDA) in A23187-activated pig platelet suspension
Type: cell-based
Conditions: Table 1, carbamic acid thioesters; pig platelets; read-out: MDA IC50

Prompt line: Give recorded IC50. CCN(CC)C(=O)Sc1nc(-c2ccc(OC)cc2)c(-c2ccc(OC)cc2)[nH]1
Response line: 4.8 nM

Prompt line: Give recorded IC50. COc1ccc(-c2nc(SC(=O)N(C)C)[nH]c2-c2ccc(OC)cc2)cc1
Response line: 71 nM

Prompt line: Give recorded IC50. CN(C)C(=O)Sc1nc(-c2ccc(Cl)cc2)c(-c2ccccc2)[nH]1
Response line: 7300 nM

----------
Molecular target: COX-2 (Homo sapiens)
Construct: endogenous in cells; host or cells: LPS-stimulated human monocytes (Ficoll extraction)
Sequence (P35354 18-604): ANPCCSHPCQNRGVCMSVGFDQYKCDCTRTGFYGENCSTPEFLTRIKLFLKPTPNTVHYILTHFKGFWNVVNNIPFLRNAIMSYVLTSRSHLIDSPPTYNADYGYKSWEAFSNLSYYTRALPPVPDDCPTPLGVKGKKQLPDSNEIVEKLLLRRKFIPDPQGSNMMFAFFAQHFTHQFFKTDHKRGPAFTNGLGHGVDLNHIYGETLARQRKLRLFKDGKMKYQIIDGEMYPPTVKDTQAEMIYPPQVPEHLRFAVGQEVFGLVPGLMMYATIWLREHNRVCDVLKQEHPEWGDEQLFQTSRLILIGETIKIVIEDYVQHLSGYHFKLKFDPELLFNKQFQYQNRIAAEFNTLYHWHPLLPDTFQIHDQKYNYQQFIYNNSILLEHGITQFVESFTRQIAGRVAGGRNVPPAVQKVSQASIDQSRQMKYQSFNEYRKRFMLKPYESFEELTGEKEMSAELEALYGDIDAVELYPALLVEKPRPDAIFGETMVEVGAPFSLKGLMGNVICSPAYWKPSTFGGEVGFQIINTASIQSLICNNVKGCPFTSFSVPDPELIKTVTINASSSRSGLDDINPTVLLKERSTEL
Assay: In-vitro test for COX-2 inhibition: PGE2 ELISA in LPS-stimulated human monocytes
Format: cell-based
Settings: Table 18; LPS-stimulated human monocytes, PGE2; read-out: COX-2 inhibition pIC50 (converted)
Readout name: IC50

Prompt line: Give recorded IC50. CC(=O)NCCSc1nc(-c2ccc(Cl)cc2)c(-c2ccc(Cl)cc2)[nH]1
Response line: 2690 nM

Prompt line: Give recorded IC50. COc1ccc(-c2nc(SCCN(C)C(=O)c3ccccc3)[nH]c2-c2ccc(OC)cc2)cc1
Response line: 10 nM

Prompt line: Give recorded IC50. COc1ccc(-c2nc(SCCNS(=O)(=O)c3ccc(Cl)cc3)[nH]c2-c2ccc(OC)cc2)cc1
Response line: 3020 nM

Prompt line: Give recorded IC50. COc1ccc(-c2nc(SCCNC(C)=O)[nH]c2-c2ccc(OC)cc2)cc1
Response line: 2690 nM

Prompt line: Give recorded IC50. COc1ccc(-c2nc(SCc3ccccn3)[nH]c2-c2ccc(OC)cc2)cc1
Response line: 240 nM

Prompt line: Give recorded IC50. COc1ccc(-c2nc(SCC(=O)N(C)C)[nH]c2-c2ccc(OC)cc2)cc1
Response line: 2290 nM

Prompt line: Give recorded IC50. COc1ccc(-c2nc(SCC(=O)c3ccccc3)[nH]c2-c2ccc(OC)cc2)cc1
Response line: 257 nM

Prompt line: Give recorded IC50. COc1ccc(-c2nc(SCCNC(=O)N(C)C)[nH]c2-c2ccc(OC)cc2)cc1
Response line: 209 nM

Prompt line: Give recorded IC50. CCN(CC)C(=O)Sc1nc(-c2ccc(OC)cc2)c(-c2ccc(OC)cc2)[nH]1
Response line: 2400 nM

Prompt line: Give recorded IC50. COc1ccc(-c2c(-c3ccc(Cl)cc3)nc(SCc3ccccn3)n2CC(=O)O)cc1
Response line: 1000 nM

Prompt line: Give recorded IC50. CCN(CC)C(=O)Sc1nc(-c2ccc(Cl)cc2)c(-c2ccc(OC)cc2)[nH]1
Response line: 1000 nM

Prompt line: Give recorded IC50. COc1ccc(-c2nc(SCCNS(=O)(=O)c3ccc(NC(C)=O)cc3)[nH]c2-c2ccc(OC)cc2)cc1
Response line: 1200 nM

Prompt line: Give recorded IC50. COc1ccc(-c2nc(SCCNS(=O)(=O)c3cc(C(F)(F)F)cc(C(F)(F)F)c3)[nH]c2-c2ccc(OC)cc2)cc1
Response line: 1510 nM

----------
Target: COX-1 (Sus scrofa, UniProt A0A287ANF9)
Construct: A platelet suspension obtained from pig's blood is preincubated with the test substance; endogenous in cells; host or cells: platelets from pig's blood
Sequence (A0A287ANF9 25-600): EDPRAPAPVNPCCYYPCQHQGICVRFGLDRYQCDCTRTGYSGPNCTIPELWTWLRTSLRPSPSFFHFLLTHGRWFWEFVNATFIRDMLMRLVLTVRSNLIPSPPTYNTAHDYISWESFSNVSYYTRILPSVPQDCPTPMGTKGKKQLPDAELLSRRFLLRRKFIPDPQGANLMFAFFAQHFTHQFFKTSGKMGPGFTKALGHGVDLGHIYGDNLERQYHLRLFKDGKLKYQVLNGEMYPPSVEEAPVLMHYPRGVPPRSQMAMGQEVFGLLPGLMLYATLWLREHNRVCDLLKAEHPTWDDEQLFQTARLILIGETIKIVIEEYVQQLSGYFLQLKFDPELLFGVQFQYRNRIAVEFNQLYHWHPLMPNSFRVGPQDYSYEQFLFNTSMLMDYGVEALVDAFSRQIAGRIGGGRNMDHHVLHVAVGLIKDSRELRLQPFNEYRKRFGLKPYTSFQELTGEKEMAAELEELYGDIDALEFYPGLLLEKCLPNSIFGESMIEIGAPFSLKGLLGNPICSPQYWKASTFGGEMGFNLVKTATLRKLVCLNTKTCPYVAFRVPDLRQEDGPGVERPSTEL
Assay: In-vitro test for COX-1 inhibition: fluorimetric quantification of malonaldehyde (MDA) in A23187-activated pig platelet suspension
Assay type: cell-based
Conditions: Table 5, heteroarylmethyl sulfides; pig platelets; read-out: MDA pIC50 (converted)
Could you please report measured IC50 for the items listed next?

Prompt line: Give recorded IC50. COc1ccc(-c2nc(SCc3nc4ccccc4[nH]3)[nH]c2-c2ccc(OC)cc2)cc1
Response line: 389 nM

Prompt line: Give recorded IC50. COc1ccc(-c2nc(SCc3ccccn3)[nH]c2-c2ccc(OC)cc2)cc1
Response line: 100 nM

Prompt line: Give recorded IC50. Clc1ccc(-c2nc(SCc3ccccn3)[nH]c2-c2ccc(Cl)cc2)cc1
Response line: 331 nM

Prompt line: Give recorded IC50. COc1ccc(-c2nc(SCc3ccncc3)[nH]c2-c2ccc(OC)cc2)cc1
Response line: 3.02 nM

Prompt line: Give recorded IC50. COc1ccc(-c2nc(SCc3cccnc3)[nH]c2-c2ccc(OC)cc2)cc1
Response line: 3.02 nM

----------
Target: COX-1 (Sus scrofa, UniProt A0A287ANF9)
Construct: A platelet suspension obtained from pig's blood is preincubated with the test substance; endogenous in cells; host or cells: platelets from pig's blood
Test: In-vitro test for COX-1 inhibition: fluorimetric quantification of malonaldehyde (MDA) in A23187-activated pig platelet suspension
Format: cell-based
Conditions: Table 2, sulfanylacetamides; pig platelets; read-out: MDA pIC50 (converted)
Protocol: In-vitro Test Procedure for the Determination of COX-1 Inhibition The inhibition of the cyclooxygenase pathway is carried out by fluorimetric quantification of malonaldehyde (MA). This condenses in the acidic medium with twice the molar amount of thiobarbituric acid to give a red pigment dye, which has a fluorescence at λExcitation: 533 nm, λEmission: 550 nm. A platelet suspension obtained from pig's blood is preincubated with the test substance for 10 min at 37° C. […]
Could you please report measured IC50 for the items listed next?
Answer in nM, number only, no unit symbol.

Prompt line: Give recorded IC50. COc1ccc(-c2nc(SCC(=O)Nc3ccc(Cl)cc3)[nH]c2-c2ccc(OC)cc2)cc1
Response line: 209

Prompt line: Give recorded IC50. COc1ccc(-c2nc(SC(C(C)=O)C(=O)N(C)C)[nH]c2-c2ccc(OC)cc2)cc1 (stereo not shown)
Response line: 33.1

Prompt line: Give recorded IC50. COc1ccc(-c2nc(SCC(=O)N(C)C)[nH]c2-c2ccc(OC)cc2)cc1
Response line: 10

Prompt line: Give recorded IC50. COc1ccc(-c2nc(SCC(=O)Nc3ccccc3)[nH]c2-c2ccc(OC)cc2)cc1
Response line: 34.7

----------
Target: COX-1 (Sus scrofa)
Construct: A platelet suspension obtained from pig's blood is preincubated with the test substance; endogenous in cells; host or cells: platelets from pig's blood
Assay: In-vitro test for COX-1 inhibition: fluorimetric quantification of malonaldehyde (MDA) in A23187-activated pig platelet suspension
Type: cell-based
Details: Table 4, aryl ketones; pig platelets; read-out: MDA IC50
Procedure: In-vitro Test Procedure for the Determination of COX-1 Inhibition The inhibition of the cyclooxygenase pathway is carried out by fluorimetric quantification of malonaldehyde (MA). This condenses in the acidic medium with twice the molar amount of thiobarbituric acid to give a red pigment dye, which has a fluorescence at λExcitation: 533 nm, λEmission: 550 nm. A platelet suspension obtained from pig's blood is preincubated with the test substance for 10 min at 37° C. […]
Could you please report measured pIC50 for the items listed next?
Scale for pIC50: -log10 of concentration given in mol/L; no unit attached.

Prompt line: Give recorded pIC50. COc1ccc(-c2nc(SCC(=O)c3ccc(Cl)cc3)[nH]c2-c2ccc(OC)cc2)cc1
Response line: 7.34

Prompt line: Give recorded pIC50. COc1ccc(-c2nc(SCC(=O)c3ccccc3)[nH]c2-c2ccc(OC)cc2)cc1
Response line: 8.02

----------
Target: COX-1 (Sus scrofa)
Construct: A platelet suspension obtained from pig's blood is preincubated with the test substance; endogenous in cells; host or cells: platelets from pig's blood
Assay: In-vitro test for COX-1 inhibition: fluorimetric quantification of malonaldehyde (MDA) in A23187-activated pig platelet suspension
Assay type: cell-based
Settings: Table 3, amines; pig platelets; read-out: MDA IC50
Readout name: IC50 (µM)
Answer in µM, number only, no unit symbol.

Prompt line: Give recorded IC50. COc1ccc(-c2nc(SCCN(C)C)[nH]c2-c2ccc(OC)cc2)cc1
Response line: 3.2
